All figures here come from paper PMC9823006.

studyTarget: Kal^Sec14 (Rattus norvegicus, UniProt P97924, N62Y/T46S)
Construct: 19.4 kDa); His6 (TEV-cleavable) (N, cleaved yes); made in house; host or cells: E. coli BL21(DE3)
protocolDescription: NMR chemical shift perturbation (CSP) titration, 1H-15N HSQC
Format: binding
particulars: construct without Ex1B front peptide; NMR titration, mean ± S.D. over residues, 25 °C; read-out: KD
recordedMetric: Kd (µM)
Answers are plain numbers, in µM.

molecule="CCCCCCCCCCCCOP(=O)([O-])OCC[N+](C)(C)C [FC12, dodecylphosphocholine]" recordedmetric=Kd recordedresult=514

Query: Look up Kd for this molecule: CCCCCCCCCCCCCCOP(=O)([O-])OCC[N+](C)(C)C [FC14, tetradecylphosphocholine]
Result: 35.6

----------
So I've got a bunch of compounds here, and I need their Densitometry values for the Western blots, Fraction 4, Ave. values.
studyTarget: Kal^Sec14 (Rattus norvegicus, UniProt P97924, N62Y/T46S)
Construct: 19.4 kDa); His6 (TEV-cleavable) (N, cleaved yes); made in house; host or cells: E. coli BL21(DE3)
protocolDescription: Liposome flotation binding assay (Accudenz gradient, Western blot)
particulars: Suppl. Fig. 9b,c, average, biological replication ≥ 3
Numbers only.

compound=CCCCCCCCCCCCC(=O)OC[C@@H](O)COP(=O)(O)OC[C@H](N)C(=O)O recordedresult=0.86

For every listed record, write down its Densitometry values for the Western blots, Fraction 4, Ave..
1. CCCCCCCCCCCCCC(=O)OC[C@@H](O)COP(=O)(O)OCC(O)CO (mixture of isomers)
2. CCCCCCCCCCCCC(=O)OC[C@@H](O)COP(=O)(O)OC1C(O)C(O)C(O)C(O)C1O (stereo partly shown)
3. CCCCCCCCCCCCCC(=O)OC[C@H](COP(=O)([O-])OCC[N+](C)(C)C)OC(=O)CCCCCCCCCCCCC

Result:
1. 0.86
2. 0.80
3. 0.85

----------
studyTarget: Kal^Sec14 (Rattus norvegicus, UniProt P97924, N62Y/T46S)
Construct: 19.4 kDa); His6 (TEV-cleavable) (N, cleaved yes); made in house; host or cells: E. coli BL21(DE3)
protocolDescription: Liposome flotation binding assay (Accudenz gradient, Western blot)
particulars: Suppl. Fig. 9b,c, average, biological replication ≥ 3
recordedMetric: Densitometry values for the Western blots, Fraction 1, Ave.
One number for each entry.

molecule="CCCCCCCCCCCCC(=O)OC[C@@H](O)COP(=O)(O)OC1C(O)C(O)C(O)C(O)C1O (stereo partly shown) [LPI13:0]" recordedresult=0.0225
molecule="CCCCCCCCCCCCC(=O)OC[C@@H](O)COP(=O)(O)OC[C@H](N)C(=O)O [LPS13:0]" recordedresult=0.05
molecule="CCCCCCCCCCCCCC(=O)OC[C@@H](O)COP(=O)(O)OCC(O)CO (mixture of isomers) [LPG14:0]" recordedresult=0.05

Next:
Query: What does the data say about its Densitometry values for the Western blots, Fraction 1, Ave.? Entry: CCCCCCCCCCCCCC(=O)OC[C@H](COP(=O)([O-])OCC[N+](C)(C)C)OC(=O)CCCCCCCCCCCCC [DMPC]
Result: 0.03

----------
I'd be grateful if you could share measured pKd for these entries.
studyTarget: KalbSec14 (Rattus norvegicus, UniProt P97924, N62Y/T46S)
Construct: His6 (TEV-cleavable) (N, cleaved yes); made in house; host or cells: E. coli BL21(DE3)
protocolDescription: Isothermal titration calorimetry (preliminary)
Assay type: binding
particulars: data not shown; authors' response in peer review file; read-out: estimated KD from preliminary ITC data
pKd: −log10 of the molar value.

compound="CCCCCCCCCCCCOP(=O)([O-])OCC[N+](C)(C)C [FC12, dodecylphosphocholine]" studytarget="KalbSec14 (Rattus norvegicus, UniProt P97924, N62Y/T46S)" recordedmetric=pKd recordedresult=~3.30

Now look at this one.
Query: Look at this compound and give its reported pKd. CCCCCCCCCCCCCCOP(=O)([O-])OCC[N+](C)(C)C [FC14, tetradecylphosphocholine]
Result: ~4.52
